test system: astro; assay: Drug repurposing screens with cells derived from glioblastoma tumor samples (AID 1345199); settings: viability, ATP luminescence, 48 h; series mostly up to 45.9 µM; also: nearly all actives have a fitted effect of over 40% in size
Results filed as inconclusive are left out. Calls of active or inactive are those of the source. Calls follow the shape of the dose curve; as a rule, active = well fitted inhibition curve with a large enough effect; inconclusive = small, poorly fitted or top-dose-only effect; inactive = flat fitted curve, though single readings scatter. Where a SMILES comes first, the peptide text is derived from it. [ ]: non-standard residue; d: D form. pGlu = O=C1CC[C@@H](C(=O)O)N1
readout kind: outcome

INSERT INTO assay_data (compound, result) VALUES
  ('CC[C@H](C)[C@H](NC(=O)[C@H](Cc1ccccc1)NC(=O)[C@H](C)NC(=O)[C@H](CC(=O)O)NC(=O)[C@H](CCCCN)NC(=O)[C@H](CO)NC(=O)[C@@H]1CCCN1C(=O)[C@@H]1CCC(=O)N1)C(=O)NCC(=O)N[C@@H](CC(C)C)C(=O)N[C@@H](CCSC)C(N)=O ([pGlu]PSKDAFIGLM-NH2)', 'inactive'),
  ('CC/C(=C(/CC)c1ccc(OP(=O)(O)O)cc1)c1ccc(OP(=O)(O)O)cc1', 'inactive'),
  ('CCOc1ccc(NC(=S)Nc2ccc(OCC)cc2)cc1', 'inactive');
